Reported IC50 values for a set of compounds
Molecular target: UniProtKB P03372
Sequence (P03372 1-595): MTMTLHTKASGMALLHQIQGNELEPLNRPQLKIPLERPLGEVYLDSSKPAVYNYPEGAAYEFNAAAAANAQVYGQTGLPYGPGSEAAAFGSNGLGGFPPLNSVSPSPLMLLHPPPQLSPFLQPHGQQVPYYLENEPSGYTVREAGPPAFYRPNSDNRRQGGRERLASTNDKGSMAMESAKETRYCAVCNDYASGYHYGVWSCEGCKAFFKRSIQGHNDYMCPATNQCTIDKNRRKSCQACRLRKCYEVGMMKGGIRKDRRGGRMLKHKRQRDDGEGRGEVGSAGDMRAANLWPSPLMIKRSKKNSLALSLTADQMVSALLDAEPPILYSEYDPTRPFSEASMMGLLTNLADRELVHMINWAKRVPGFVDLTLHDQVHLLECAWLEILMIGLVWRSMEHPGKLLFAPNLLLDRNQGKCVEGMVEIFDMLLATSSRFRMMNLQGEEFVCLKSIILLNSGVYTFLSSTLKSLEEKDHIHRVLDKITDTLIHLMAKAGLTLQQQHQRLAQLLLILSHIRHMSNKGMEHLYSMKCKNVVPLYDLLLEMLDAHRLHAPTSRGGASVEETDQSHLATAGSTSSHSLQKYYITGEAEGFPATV
Give just the number in nM; leave the unit off.

Some compounds with recorded IC50:
[[record]]
compound = "C[C@]12CCC3c4cc5cc[nH]c5cc4CCC3C1CC[C@@H]2OC(=O)CCC(=O)O (some centres unmarked) [Compound 13]"
system = "UniProtKB P03372"
endpoint_result = 920

[[record]]
compound = "C[C@]12CCC3c4ccc5[nH]ccc5c4CCC3C1CCC2=O (some centres unmarked) [Compound 4]"
system = "UniProtKB P03372"
endpoint_result = 1400

[[record]]
compound = "C[C@]12CCC3c4ccc5[nH]ccc5c4CCC3C1CC[C@@H]2O (some centres unmarked) [Compound 6]"
system = "UniProtKB P03372"
endpoint_result = 42

[[record]]
compound = "C[C@]12CCC3c4cc5cc[nH]c5cc4CCC3C1CC[C@@H]2O (some centres unmarked) [Compound 8]"
system = "UniProtKB P03372"
endpoint_result = 40


// moving on: another record for IC50
INPUT: Test system UniProtKB P03372; read-out IC50; what value for C[C@]12CCC3c4cc5cc[nH]c5cc4CCC3C1CCC2=O (some centres unmarked) [Compound 3] ?
OUTPUT: 2200

---

Test system: MCF-7 cells
Test: MCF-7 Cell Proliferation Assay (14C-thymidine incorporation)
Type: cell-based
Settings: Homo sapiens, MCF7, increase in 14C-thymidine vs vehicle, read-out: MCF7 (Breast) EC50
pEC50: −log10 of the molar value.
Response key: Criterion met means pEC50 >= 8; Criterion not met means pEC50 < 8.

[[record]]
compound = "C[C@]12CCC3c4ccc5[nH]ccc5c4CCC3C1CC[C@@H]2O (some centres unmarked) [Compound 6]"
qualitative_label = "Criterion met"


INPUT: State whether the measured pEC50 reaches 8, counting equality as reaching it, for C[C@]12CCC3c4cc5cc[nH]c5cc4CCC3C1CCC2=O (some centres unmarked) [Compound 3]
OUTPUT: Criterion not met

INPUT: State whether the measured pEC50 reaches 8, counting equality as reaching it, for C[C@]12CCC3c4ccc5[nH]ccc5c4CCC3C1CCC2=O (some centres unmarked) [Compound 4]
OUTPUT: Criterion not met
